System: Escherichia coli
Experiment: Antibacterial activity against Escherichia coli ATCC 25922 incubated for 18 to 24 hrs by broth microdilution method
Format: functional
Where a SMILES comes first, the peptide text is derived from it.
resultType: MIC (µM)

molecule="CC(C)C[C@H](NC(=O)[C@H](CCCNC(=N)N)NC(=O)[C@@H](NC(=O)[C@H](CCCNC(=N)N)NC(=O)[C@@H](NC(=O)[C@H](CCCCN)NC(=O)[C@@H](NC(=O)[C@H](CCCNC(=N)N)NC(=O)[C@H](CC(C)C)NC(=O)[C@H](CCCNC(=N)N)NC(=O)[C@@H](N)C(C)C)C(C)C)[C@@H](C)O)C(C)C)C(=O)N[C@@H](CCCCN)C(N)=O (H-VRLRVKTRVRLK-NH2)" resulttype=MIC valueobserved=4
molecule="N=C(N)NCCC[C@H](NC(=O)[C@H](Cc1ccccc1)NC(=O)[C@H](CCCNC(=N)N)NC(=O)[C@H](Cc1c[nH]c2ccccc12)NC(=O)[C@H](CCCNC(=N)N)NC(=O)[C@H](Cc1ccccc1)NC(=O)[C@H](CCCNC(=N)N)NC(=O)[C@H](Cc1c[nH]c2ccccc12)NC(=O)[C@H](CCCNC(=N)N)NC(=O)[C@H](Cc1ccccc1)NC(=O)[C@H](CCCNC(=N)N)NC(=O)[C@@H](N)Cc1c[nH]c2ccccc12)C(N)=O (H-WRFRWRFRWRFR-NH2)" resulttype=MIC valueobserved=8
molecule="CC(C)C[C@H](NC(=O)[C@H](Cc1c[nH]c2ccccc12)NC(=O)[C@H](CCCCN)NC(=O)[C@H](CCCNC(=N)N)NC(=O)[C@@H](NC(=O)[C@H](Cc1c[nH]c2ccccc12)NC(=O)[C@H](CCCCN)NC(=O)[C@H](CCCNC(=N)N)NC(=O)[C@H](CC(C)C)NC(=O)[C@H](Cc1c[nH]c2ccccc12)NC(=O)[C@@H](N)CCCNC(=N)N)[C@@H](C)O)C(=O)N[C@@H](CCCCN)C(N)=O (H-RWLRKWTRKWLK-NH2)" resulttype=MIC valueobserved=4
molecule="CC(C)C[C@H](NC(=O)[C@H](CCCNC(=N)N)NC(=O)[C@H](Cc1c[nH]c2ccccc12)NC(=O)[C@H](CCCNC(=N)N)NC(=O)[C@@H](NC(=O)[C@H](Cc1c[nH]c2ccccc12)NC(=O)[C@H](Cc1c[nH]c2ccccc12)NC(=O)[C@H](CCCNC(=N)N)NC(=O)[C@H](CC(C)C)NC(=O)[C@H](CCCNC(=N)N)NC(=O)[C@@H](N)CCCNC(=N)N)[C@@H](C)O)C(=O)N[C@@H](CCCCN)C(N)=O (H-RRLRWWTRWRLK-NH2)" resulttype=MIC valueobserved=4
molecule="CC(C)[C@H](NC(=O)[C@H](CCCNC(=N)N)NC(=O)[C@H](Cc1c[nH]c2ccccc12)NC(=O)[C@H](CCCNC(=N)N)NC(=O)[C@@H](NC(=O)[C@H](CCCNC(=N)N)NC(=O)[C@H](Cc1c[nH]c2ccccc12)NC(=O)[C@H](CCCNC(=N)N)NC(=O)[C@@H](NC(=O)[C@H](CCCNC(=N)N)NC(=O)[C@@H](N)Cc1c[nH]c2ccccc12)C(C)C)C(C)C)C(=O)N[C@@H](CCCNC(=N)N)C(N)=O (H-WRVRWRVRWRVR-NH2)" resulttype=MIC valueobserved=4

Entry source: ChEMBL document CHEMBL4311942
